Measured values drawn from ChEMBL document CHEMBL5724796 for this set.

- study.target: Mitogen-activated protein kinase 1 (Homo sapiens)
- condition.set: Compound concentration 20.0 uM
- Description: Thermal Shift Assay. Domain: start/stop: M1-S360
Non-standard residues stand in square brackets, D forms with d. Residues, ends and D or L forms follow the SMILES beside them. *: point of attachment. Tyr(3-Cl) = N[C@@H](Cc1ccc(O)c(Cl)c1)C(=O)O; Benzoyl(3,5-Cl2) = O=C(c1cc(Cl)cc(Cl)c1)*; Lys(Et2) = CCN(CC)CCCC[C@H](N)C(=O)O; Gly(cPent) = N[C@H](C(=O)O)C1CCCC1; NH(propargyl) = C#CCN*

# molecule, u, ΔTm
rows = [
    ("NC(=O)[C@H]1CCCCc2c1[nH]c1ccc(Cl)cc21", "°C", -0.5),
    ("N#Cc1cc(F)cc(Oc2ccc3c(c2C(F)F)[C@@H](O)C(F)(F)S3(=O)=O)c1", "°C", 0.16),
    ("O=C(CCCCCCNC(=O)c1cnc(N(c2ccccc2)c2ccccc2Cl)nc1)NO", "°C", -0.04),
    ("CSCC[C@H](NC(=O)[C@H](CC(=O)O)NC(C)=O)C(=O)N[C@@H](CCC(N)=O)C(=O)N[C@H](C=O)CC(=O)O (Ac-DMQD-aldehyde)", "°C", -0.4),
    ("CCCCNc1cc(C(=O)O)cc(S(N)(=O)=O)c1Oc1ccccc1", "°C", 0.13),
    ("O=c1[nH][nH]c(=O)c2cc(OCc3ccsc3)ccc12", "°C", 0.65),
    ("O=C(Oc1cccc(F)c1OC(=O)c1cccc(O)c1)c1cccc(O)c1", "°C", 0.41),
    ("O=C(O)Cn1nnc(-c2ccc(CN(CCCCOc3ccc(CN4CCCC4)cc3)CCc3ccccc3)cc2)n1", "°C", -0.45),
    ("Cn1c(=O)c2c(nc(N3CCNCC3)n2Cc2nnc(-c3ccc(Cl)c(Cl)c3)o2)n(C)c1=O", "°C", 0.1),
    ("CC1(NC(=O)COc2cccc(-c3nc4c(c(Nc5ccc(-c6cn[nH]c6)cc5)n3)CN(C3CCC3)CC4)c2)CC1", "°C", 0.14),
    ("N#Cc1ccc(-c2csc(NN=C3CCCC3)n2)cc1", "°C", -0.09),
    ("Cn1cc(-c2ccncc2)c(-c2ccc(OCc3ccc4ccccc4n3)cc2)n1", "°C", 0.13),
    ("CCCCCCCCCCCCC/C=C/[C@@H](O)[C@H](CO)NC(=O)CBr", "°C", 0.47),
    ("CC(C)c1cnc(CSc2cnc(NC(=O)C3CCNCC3)s2)o1", "°C", -0.12),
    ("COc1ccc(N2CCN(C(=O)c3cc4c(s3)-c3ccccc3S(=O)(=O)C4)CC2)cc1", "°C", 0.36),
    ("CC(C)c1ccc(C(=O)N=C(N)N)cc1S(C)(=O)=O", "°C", 0.04),
    ("CC(C)c1cc(C(=O)N2CC[C@@H](NC(=O)C3CC3)C2)[nH]n1", "°C", 0.08),
    ("NC(=O)c1cccc(NC(=O)CCC(=O)NCCc2cn(CCNS(=O)(=O)c3cccc(C(=O)O)c3)nn2)c1", "°C", -1.68),
    ("Cc1[nH]c2c(N3CCO[C@H](CO)C3)c(C#N)c(C(F)(F)F)nc2c1Cl", "°C", 1.85),
    ("O=S(=O)(O)c1ccc2cc(/N=N/c3cc(S(=O)(=O)O)c4cccnc4c3O)ccc2c1", "°C", -3.54),
    ("Cn1c(=O)cc(N2CCC[C@@H](N)C2)n(Cc2ccccc2C#N)c1=O", "°C", 0.02),
    ("CC[C@H](C)[C@H](NC(C)=O)C(=O)N[C@@H](CCC(=O)O)C(=O)N[C@H](C(=O)N[C@H](C=O)CC(=O)O)[C@@H](C)O (Ac-IETD-aldehyde)", "°C", -0.3),
    ("O=C(NCC1CCOCC1)c1n[nH]cc1NC(=O)c1c(F)cccc1F", "°C", 0.1),
    ("C#CCNC(=O)[C@H](CO)NC(=O)[C@H](CCCCN(CC)CC)NC(=O)[C@@H](NC(=O)[C@@H](NC(=O)[C@H](Cc1ccc(O)c(Cl)c1)NC(=O)c1cc(Cl)cc(Cl)c1)C1CCCC1)[C@@H](C)CC ({Benzoyl(3,5-Cl2)}-[Tyr(3-Cl)][Gly(cPent)]I[Lys(Et2)]S-{NH(propargyl)})", "°C", 0.49),
    ("O=C1c2ccccc2C(=O)c2oc(-c3ccccc3)nc21", "°C", -0.09),
    ("CCN(CC)S(=O)(=O)c1cc(Nc2nccc(-c3ccnc(-c4ccc(NC(=O)NC)cc4)c3)n2)ccc1Cl", "°C", 0),
    ("CC(=O)N[C@@H](CC(=O)O)C(=O)N[C@@H](CCC(=O)O)C(=O)N[C@H](C(=O)N[C@@H](CC(=O)O)C(=O)CCl)C(C)C", "°C", -0.58),
    ("Cc1nc(F)ccc1-c1cc(Cn2ccn(C)c2=N)cc(C(=O)NCc2ccc(Cl)c(Cl)c2)c1", "°C", -0.24),
    ("O=C(Nc1cc(C(F)F)ns1)Nc1cc(F)ncc1CO", "°C", 0.14),
    ("CC(C)(C)C1CCN(C(=O)n2ncc(C(O)(c3ccccc3)c3ccccc3)n2)CC1", "°C", 0.52),
    ("CCCOc1ccc(NC(=O)CN2CCN(C)CC2)cc1-c1nc(CC)c(CC)c(=O)[nH]1", "°C", 0.66),
    ("CC(C)C(=O)SCCCCCCC(=O)Nc1nc(-c2ccccc2)cs1", "°C", -0.16),
    ("COC(=O)C1=C(C(=O)OC)[C@@]2([C@@H](Cc3ccc(C)cc3)Nc3ccccc3)C=C[C@@H]1O2", "°C", -0.27),
    ("CCNC(=O)/C=C/c1cccc(Br)c1", "°C", -0.04),
    ("O=S(=O)(CSc1nnc(Br)n1Cc1ccc(Br)c2ccccc12)Nc1cccnc1", "°C", 0.05),
    ("CCCN1CCN(c2ccc(C(=O)NC3(C(=O)NCC#N)CCCCC3)cc2)CC1", "°C", -0.16),
]

* * *

Reported values of ΔTm for individual entries
- study.target: Cyclin-dependent kinase 2 (Homo sapiens) (UniProt P24941)
- condition.set: Compound concentration 20.0 uM
- Description: Thermal Shift Assay. Domain: start/stop: M1-L298
measured.metric: ΔTm (°C)

# molecule, study.target, quantitative.result
rows = [
    ("COc1cc2c(NCC3CCN(C)CC3)cc(-c3ccc(C)o3)nc2cc1OCCCN1CCCC1", "Cyclin-dependent kinase 2 (Homo sapiens) (UniProt P24941)", 0.22),
    ("OC[C@H]1O[C@@H](c2ccc(F)c(Cc3cc4ccccc4s3)c2)[C@H](O)[C@@H](O)[C@@H]1O", "Cyclin-dependent kinase 2 (Homo sapiens) (UniProt P24941)", 0.04),
    ("Cc1cc(C(=O)CN2CCCCC2)c(C)n1-c1ccc(Cl)cc1", "Cyclin-dependent kinase 2 (Homo sapiens) (UniProt P24941)", 0.02),
    ("CC(=O)N[C@@H](CC(=O)O)C(=O)N[C@@H](CC(N)=O)C(=O)N[C@@H](CC(C)C)C(=O)N[C@H](C=O)CC(=O)O", "Cyclin-dependent kinase 2 (Homo sapiens) (UniProt P24941)", 0.27),
    ("CC(C)[C@@H]1C(=O)N(S(C)(=O)=O)[C@@H]2CCN(C(=O)/C=C/CN3CCCCC3)[C@H]21", "Cyclin-dependent kinase 2 (Homo sapiens) (UniProt P24941)", 0.22),
]

* * *

- study.target: Bromodomain-containing protein 4 (Homo sapiens)
- condition.set: Compound concentration 20.0 uM
Residues, ends and D or L forms follow the SMILES beside them. *: point of attachment. Boc = CC(C)(C)OC(=O)*; CH2Cl = ClC*
Please respond with condition met when measured ΔTm is strictly beneath -2 °C, and with condition not met in all other cases.

# compound, study.target, class
records = [
    ("OC[C@H]1O[C@@H](c2ccc(Cl)c(Cc3ccc(OCCOC4CC4)cc3)c2)[C@H](O)[C@@H](O)[C@@H]1O", "Bromodomain-containing protein 4 (Homo sapiens)", "condition met"),
    ("CCN(CC)S(=O)(=O)c1cc(Nc2nccc(-c3ccnc(-c4ccc(NC(=O)NC)cc4)c3)n2)ccc1Cl", "Bromodomain-containing protein 4 (Homo sapiens)", "condition not met"),
    ("CC1(C)c2cccc(C(=O)NO)c2CN1c1cnc(C(F)(F)F)cn1", "Bromodomain-containing protein 4 (Homo sapiens)", "condition met"),
    ("CC(C)C(=O)c1c(C(C)C)nn2ccccc12", "Bromodomain-containing protein 4 (Homo sapiens)", "condition met"),
    ("CN1CCc2c(n(Cc3ccc(C(=O)NO)cc3)c3ccccc23)C1", "Bromodomain-containing protein 4 (Homo sapiens)", "condition not met"),
    ("CCN(CC)C(=O)/C(C#N)=C/c1cc(O)c(O)c([N+](=O)[O-])c1", "Bromodomain-containing protein 4 (Homo sapiens)", "condition not met"),
    ("N[C@@H](CCCCB(O)O)C(=O)O", "Bromodomain-containing protein 4 (Homo sapiens)", "condition not met"),
    ("CC(=O)N[C@@H](Cc1ccccc1)C(=O)N[C@@H](CC(C)C)C(=O)N[C@H](C(=O)N[C@@H](CC(=O)O)C(=O)CCl)[C@@H](C)O (Ac-FLTD-CH2Cl)", "Bromodomain-containing protein 4 (Homo sapiens)", "condition met"),
    ("CC(C)[C@H](NC(=O)[C@H](CCC(=O)O)NC(=O)[C@H](C)NC(=O)OC(C)(C)C)C(=O)N[C@H](C=O)CC(=O)O (Boc-AEVD-aldehyde)", "Bromodomain-containing protein 4 (Homo sapiens)", "condition met"),
]
